Values from ChEMBL document CHEMBL3217690

Biological target: Epidermal growth factor receptor (Homo sapiens, UniProt P00533, L858R/T790M)
Sequence (P00533 25-1210 T790M/L858R limits assumed): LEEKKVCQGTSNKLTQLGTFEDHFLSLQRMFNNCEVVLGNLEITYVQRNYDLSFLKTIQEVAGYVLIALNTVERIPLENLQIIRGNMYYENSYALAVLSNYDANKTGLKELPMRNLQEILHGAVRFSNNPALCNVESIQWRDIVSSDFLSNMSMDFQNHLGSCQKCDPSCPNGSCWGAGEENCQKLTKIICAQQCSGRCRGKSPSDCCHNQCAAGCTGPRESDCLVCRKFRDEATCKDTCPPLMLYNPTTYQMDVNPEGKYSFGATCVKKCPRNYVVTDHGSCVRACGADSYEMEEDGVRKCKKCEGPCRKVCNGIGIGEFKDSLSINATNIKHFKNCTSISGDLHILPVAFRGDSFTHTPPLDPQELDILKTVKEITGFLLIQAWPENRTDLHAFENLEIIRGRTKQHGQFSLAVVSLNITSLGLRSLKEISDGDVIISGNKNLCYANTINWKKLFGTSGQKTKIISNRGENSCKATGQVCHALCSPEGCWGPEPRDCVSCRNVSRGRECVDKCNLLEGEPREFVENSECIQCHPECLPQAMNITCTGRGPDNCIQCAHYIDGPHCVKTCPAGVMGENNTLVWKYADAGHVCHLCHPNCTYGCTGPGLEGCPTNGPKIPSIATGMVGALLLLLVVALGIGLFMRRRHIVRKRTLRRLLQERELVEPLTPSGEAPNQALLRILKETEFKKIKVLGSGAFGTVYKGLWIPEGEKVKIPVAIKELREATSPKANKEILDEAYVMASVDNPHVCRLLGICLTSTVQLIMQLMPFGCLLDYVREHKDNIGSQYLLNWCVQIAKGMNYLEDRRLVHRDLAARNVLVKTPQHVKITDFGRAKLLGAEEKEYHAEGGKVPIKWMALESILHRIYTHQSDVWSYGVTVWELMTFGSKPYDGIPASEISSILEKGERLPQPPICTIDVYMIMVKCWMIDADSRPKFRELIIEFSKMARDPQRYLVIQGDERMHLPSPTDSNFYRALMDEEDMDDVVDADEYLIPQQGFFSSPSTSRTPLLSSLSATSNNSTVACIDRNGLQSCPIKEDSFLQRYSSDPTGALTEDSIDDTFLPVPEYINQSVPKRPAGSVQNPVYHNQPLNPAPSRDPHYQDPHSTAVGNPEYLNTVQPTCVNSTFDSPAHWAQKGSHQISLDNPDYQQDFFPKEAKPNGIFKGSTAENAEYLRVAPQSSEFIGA
Assay: Inhibition of EGF-induced EGFR L858R/T790M mutant-mediated pS6 phosphorylation in human […] cells after 1 hr by immunoblotting method
Assay type: cell-based
assay_metric: pEC50
Keep in mind that pEC50 stands for -log10 of concentration in molar terms.

Could you share which pEC50 value was measured for C=CC(=O)Nc1cccc(Nc2cc(Nc3cccc(Br)c3)ncn2)c1 ? 6.37

====

Below is a list of entries, each paired with its recorded pIC50 value.
Molecular target: Epidermal growth factor receptor (Homo sapiens)
Experiment: Inhibition of EGF-induced EGFR autophosphorylation in human A431 cells after 1 hr by immunoblotting method
Type: cell-based, A-431
Keep in mind that pIC50 stands for -log10 of concentration in molar terms.

>>> print(df.to_string())
                                smiles_text  assay_metric  experimental_result
0  CCC(=O)Nc1cccc(Nc2cc(Nc3cccc(Br)c3)ncn2)c1         pIC50                 6.78

We next turn to a different compound, shown below.
Could you share which pIC50 value was measured for C=CC(=O)Nc1cccc(Nc2cc(Nc3cccc(Br)c3)ncn2)c1 ? 7.31
